Test system: 22Rv1 cells
Test: 22Rv1 cell growth inhibition test (SRB assay)
Type: cell-based, human
Settings: growth inhibition at 222 nM, 73 h
READOUT NAME: Inhibition Ratio (%)
Unit % implied. Number only.

Inhibition Ratio (%) on 22Rv1 cells for COc1cccc2c1C(=O)c1c(O)c3c(c(O)c1C2=O)CC(O)(C(=O)COC(=O)CCC(=O)NS(=O)(=O)c1ccccc1)CC3OC1CC(n2cccc2)C(O)C(C)O1 (stereo not drawn) is 51.3

Entry COc1cccc2c1C(=O)c1c(O)c3c(c(O)c1C2=O)CC(O)(C(=O)COC(=O)CCC(=O)NCc1ccccn1)CC3OC1CC(n2cccc2)C(O)C(C)O1 (stereo not drawn) , 22Rv1 cells data, Inhibition Ratio (%) value: 62.3

Reported 22Rv1 cells Inhibition Ratio (%) for item COc1cccc2c1C(=O)c1c(O)c3c(c(O)c1C2=O)CC(O)(C(=O)COC(=O)CCCC(=O)Nc1ccc(CN2CCOCC2)cc1)CC3OC1CC(n2cccc2)C(O)C(C)O1 (stereo not drawn) was 61.9

COc1cccc2c1C(=O)c1c(O)c3c(c(O)c1C2=O)CC(O)(C(=O)COC(=O)CCC(=O)N(CCO)CCO)CC3OC1CC(n2cccc2)C(O)C(C)O1 (stereo not drawn) tested on 22Rv1 cells gave Inhibition Ratio (%): 54.8

The observed Inhibition Ratio (%) for COc1cccc2c1C(=O)c1c(O)c3c(c(O)c1C2=O)CC(O)(C(=O)COC(=O)CCC(=O)N1CCN(CCCN(C)C)CC1)CC3OC1CC(n2cccc2)C(O)C(C)O1 (stereo not drawn) when tested with 22Rv1 cells stands at 48.5

Measured Inhibition Ratio (%) for this entry COc1cccc2c1C(=O)c1c(O)c3c(c(O)c1C2=O)CC(O)(C(=O)COC(=O)CCC(=O)NCCO)CC3OC1CC(n2cccc2)C(O)C(C)O1 (stereo not drawn) on 22Rv1 cells: 52.9

---

Exercise: for every item that follows, state its recorded IC50.
Test system: B16 cells
Test: B16 cell growth inhibition test (MTT assay)
Assay type: cell-based, mouse
Conditions: 72 h
Give a bare numeral; the unit nM is implied.

Recorded result, COc1cccc2c1C(=O)c1c(O)c3c(c(O)c1C2=O)CC(O)(C(=O)COC(=O)CCC(=O)O)CC3OC1CC(n2cccc2)C(O)C(C)O1 (stereo not drawn) [Compound A, reference compound] , IC50: 32

// IC50 value for COc1cccc2c1C(=O)c1c(O)c3c(c(O)c1C2=O)CC(O)(C(=O)COC(=O)CCC(=O)NCCOCCO)CC3OC1CC(n2cccc2)C(O)C(C)O1 (stereo not drawn) : 3

Per the records, this compound ( COc1cccc2c1C(=O)c1c(O)c3c(c(O)c1C2=O)CC(O)(C(=O)COC(=O)CCC(=O)NCCN1CCOCC1)CC3O[C@H]1C[C@H](n2cccc2)[C@H](O)[C@H](C)O1 (stereo partly drawn) ) has IC50 equal to 3

---

System: 786-O cells
Assay: 786-O cell growth inhibition test (MTT assay)
Format: cell-based, human
Details: 72 h
READOUT NAME: IC50 (nM)
Answer in nM, number only, no unit symbol.

The reported value for COc1cccc2c1C(=O)c1c(O)c3c(c(O)c1C2=O)CC(O)(C(=O)COC(=O)CCC(=O)O)CC3OC1CC(n2cccc2)C(O)C(C)O1 (stereo not drawn) [Compound A, reference compound] in terms of IC50 is 180

Consider COc1cccc2c1C(=O)c1c(O)c3c(c(O)c1C2=O)CC(O)(C(=O)COC(=O)CCC(=O)NCCOCCO)CC3OC1CC(n2cccc2)C(O)C(C)O1 (stereo not drawn) [Example 62] . Its measured IC50 is 110

Item: COc1cccc2c1C(=O)c1c(O)c3c(c(O)c1C2=O)CC(O)(C(=O)COC(=O)CCC(=O)NCCOCCOCCOCCOCCOCCOCCOCCO)CC3OC1CC(n2cccc2)C(O)C(C)O1 (stereo not drawn) [Example 90] | IC50: 90

Reference for the values: patent US9670242B2
